system: Myc/Max binding to DNA (Homo sapiens)
Sequence (P01106 whole entry): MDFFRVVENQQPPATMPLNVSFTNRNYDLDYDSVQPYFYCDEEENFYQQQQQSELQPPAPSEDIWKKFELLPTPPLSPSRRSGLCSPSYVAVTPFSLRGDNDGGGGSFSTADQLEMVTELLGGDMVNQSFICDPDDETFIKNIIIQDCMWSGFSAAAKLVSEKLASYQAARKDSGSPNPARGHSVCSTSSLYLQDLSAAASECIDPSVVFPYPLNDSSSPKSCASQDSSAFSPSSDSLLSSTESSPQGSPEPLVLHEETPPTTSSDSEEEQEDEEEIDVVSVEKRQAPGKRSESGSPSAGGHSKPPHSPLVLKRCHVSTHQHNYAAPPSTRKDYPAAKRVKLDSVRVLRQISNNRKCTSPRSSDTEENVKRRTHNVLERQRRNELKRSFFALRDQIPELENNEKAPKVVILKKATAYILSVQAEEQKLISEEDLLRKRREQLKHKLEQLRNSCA
protocol.notes: Electrophoretic mobility shift assay (EMSA) of Myc/Max binding to DNA
Format: biochemical
condition.parameters: EMSA, 100 uM test compound; read-out: Bound DNA (%) (100uM)
remaining activity at 100 µM strictly under 90% means Satisfied; at 90% or over means Not satisfied.

Lab note: remaining activity at 100 µM threshold 90%. Does this compound come in strictly under it? CCc1ccc(Oc2c(-c3ccc(OCc4ccc(Cl)cc4)cc3)nn(C)c2C(F)(F)F)cc1
Not satisfied

Lab note: remaining activity at 100 µM threshold 90%. Does this compound come in strictly under it? Oc1cc(Nc2ccc3c(c2)OCO3)ccc1-c1cc(C(F)(F)F)[nH]n1
Satisfied

Lab note: remaining activity at 100 µM threshold 90%. Does this compound come in strictly under it? Cc1c(-c2ccccc2)c(-c2ccc(OCc3ccc(Cl)cc3)cc2O)nn1C
Not satisfied

Lab note: remaining activity at 100 µM threshold 90%. Does this compound come in strictly under it? CN/N=C(\C)c1ccc(-c2c(-c3ccc(OCc4ccc(Cl)cc4)cc3O)nn(C)c2C(F)(F)F)cc1
Satisfied

Lab note: remaining activity at 100 µM threshold 90%. Does this compound come in strictly under it? Cn1cc(C(F)(F)F)c(-c2cnc(OCc3ccc(Cl)cc3)cn2)n1
Not satisfied

Lab note: remaining activity at 100 µM threshold 90%. Does this compound come in strictly under it? Cn1cc(C(F)(F)F)c(-c2ccc(NCc3ccc(Cl)cc3)cn2)n1
Not satisfied

Lab note: remaining activity at 100 µM threshold 90%. Does this compound come in strictly under it? Cc1ccc(C)c(Oc2cn(C)nc2-c2ccc(OCc3ccc(Cl)cc3)cc2O)c1
Not satisfied

Lab note: remaining activity at 100 µM threshold 90%. Does this compound come in strictly under it? COc1ccc(-c2c(-c3ccc(O)cc3O)n[nH]c2C(F)(F)F)cc1OC
Satisfied

Lab note: remaining activity at 100 µM threshold 90%. Does this compound come in strictly under it? CCc1ccc(Oc2c(-c3ccc(OCc4cccc(Cl)c4)cc3O)nn(C)c2C(F)(F)F)cc1
Satisfied

Lab note: remaining activity at 100 µM threshold 90%. Does this compound come in strictly under it? Cn1nc(C(F)(F)F)cc1-c1ccc(NCc2ccc(Cl)cc2)cn1
Not satisfied

Lab note: remaining activity at 100 µM threshold 90%. Does this compound come in strictly under it? Nc1ccc(-c2cc(C(F)(F)F)[nH]n2)c(O)c1
Not satisfied
